# Tested on: primary human T-cells
# Assay Method Text: Proliferation assay after 5 days (CellTiter-Glo, CD3 stimulation; PBS counter screen)
# Format: cell-based
# Measurement Parameters: Homo sapiens, T-cell, 120 h, primary human T-cells, CD3 stimulation, CellTiter-Glo after 5 days; EC50 of fitted sigmoidal curve; read-out: Tcell Proliferation CD3 EC50
pEC50: −log10 of the molar value.
Think of 6 as a floor: if pEC50 stands on it or above, it is Satisfied; beneath it, Not satisfied.

>  <Molecule>
CC1(Nc2nc(-c3cc4c(cc3F)S(=O)(=O)C[C@H](N)C(=O)N4Cc3ccc(Cl)cc3)no2)CC(F)(F)C1 [Example 201]

>  <Class>
Satisfied

$$$$
>  <Molecule>
CC(C)(C)NC(=O)c1nc(-c2ccc3c(c2)N(Cc2ccc(Cl)cc2)C(=O)[C@@H](N)CS3(=O)=O)no1 [Example 354]

>  <Class>
Not satisfied

$$$$
>  <Molecule>
CC(C)(C#N)Nc1nc(-c2cc3c(cc2F)S(=O)(=O)C[C@H](N)C(=O)N3Cc2ccc(Cl)cc2)no1 [Example 199]

>  <Class>
Not satisfied

$$$$
>  <Molecule>
CC(C)(CN1CCCC1=O)c1nnc(-c2cc3c(cc2F)S(=O)(=O)C[C@H](N)C(=O)N3Cc2ccc(Cl)cc2)o1 [Example 64]

>  <Class>
Not satisfied

$$$$

Hi team, for N[C@H]1CS(=O)(=O)c2cc(F)c(-c3nc(COCc4ccccc4)no3)cc2N(Cc2ccc(Cl)cc2)C1=O [Example 45] , is the recorded pEC50 at or above 6?
Not satisfied

---

# System: primary human T-cells
# Assay Method Text: Proliferation assay after 5 days (CellTiter-Glo, CD3 stimulation; PBS counter screen)
# Format: cell-based
# Measurement Parameters: Homo sapiens, T-cell, 120 h, primary human T-cells, CD3 stimulation, CellTiter-Glo after 5 days; EC50 of fitted sigmoidal curve; read-out: Tcell Proliferation CD3 EC50
Please respond with 1 when measured EC50 is strictly beneath 400 nM, and with -1 in all other cases.

>  <Molecule>
N[C@H]1CS(=O)(=O)c2cc(F)c(-c3nnc(N4CC5(C4)CC(F)(F)C5)o3)cc2N(Cc2ccc(Cl)cc2)C1=O

>  <Class>
-1

$$$$
>  <Molecule>
CCc1cn(-c2cc3c(cc2F)SC[C@H](N)C(=O)N3Cc2ccc(Cl)cc2)nn1

>  <Class>
-1

$$$$
>  <Molecule>
Cc1ccc(-c2nnc(-c3ccc4c(c3)N(Cc3ccc(Cl)cc3)C(=O)[C@@H](N)CS4(=O)=O)o2)cc1

>  <Class>
1

$$$$

# strict comparison: is reported EC50 < 400 nM? input = `N[C@H]1CS(=O)(=O)c2cc(F)c(-c3nnc(NC4CCCCC4)o3)cc2N(Cc2ccc(Cl)cc2)C1=O`
-1

In plain terms, does `CC(C)(C#N)c1nnc(-c2cc3c(cc2F)S(=O)(=O)C[C@H](N)C(=O)N3Cc2ccc(OC(F)(F)F)cc2)o1` come in under 400 nM for EC50?
1

Just wondering, is EC50 of N[C@H]1CS(=O)(=O)c2cc(F)c(-c3nnc(C4CCCC(F)(F)C4)o3)cc2N(Cc2ccc(Cl)cc2)C1=O (some centres unmarked) below 400 nM?
1

Please indicate whether the reported EC50 of `N[C@H]1CS(=O)(=O)c2cc(F)c(-c3nnc(N4CCC4)o3)cc2N(Cc2ccc(Cl)cc2)C1=O` is strictly below 400 nM.
-1

Lab note: EC50 threshold 400 nM. Does this molecule come in strictly under it? N[C@H]1CS(=O)(=O)c2cc(F)c(-c3nnc(N4CCC(F)(F)C(CO)C4)o3)cc2N(Cc2ccc(Cl)cc2)C1=O (some centres unmarked)
-1

Identify whether the molecule CN1CCCC(F)(c2nnc(-c3ccc4c(c3)N(Cc3ccc(Cl)cc3)C(=O)[C@@H](N)CS4(=O)=O)o2)C1 (some centres unmarked) records EC50 below 400 nM.
-1

Is EC50 strictly under 400 nM for the entry `CN1CC(C)(c2nnc(-c3cc4c(cc3F)S(=O)(=O)C[C@H](N)C(=O)N4Cc3ccc(Cl)cc3)o2)C1` ?
-1

Does `CC(C)(C#N)c1nnc(-c2ccc3c(c2)N(Cc2ccc(Cl)cc2)C(=O)[C@@H](N)CS3(=O)=O)o1` have EC50 strictly under 400 nM?
-1

Given the entry `N[C@H]1CS(=O)(=O)c2cc(F)c(-c3noc(N4[C@@H]5CC[C@H]4COC5)n3)cc2N(Cc2ccc(Cl)cc2)C1=O` , would its reported EC50 be below 400 nM?
1

Record `CC1(C)CN(c2nc(-c3cc4c(cc3F)S(=O)(=O)C[C@H](N)C(=O)N4Cc3ccc(Cl)cc3)no2)CCO1` : is its EC50 strictly below 400 nM?
-1

Dear reviewer, please state whether `CC(C)(C)n1nnc(-c2cc3c(cc2F)S(=O)(=O)C[C@H](N)C(=O)N3Cc2ccc(OC(F)(F)F)cc2)n1` has EC50 strictly beneath 400 nM.
1

---

# System: primary human T-cells
# Assay Method Text: Proliferation assay after 5 days (CellTiter-Glo, CD3 stimulation; PBS counter screen)
# Format: cell-based
# Measurement Parameters: Homo sapiens, T-cell, 120 h, CD3 stimulation, 5 days; normalized to reference compound A1 as stimulator control = 100%, DMSO neutral control; read-out: Emax proliferation (% activation)
# Procedure: Compounds are then added (see next section) to medium only plates. Cells are assessed for proliferation 5 days later by measuring […] using CellTiterGlo (Promega). After 5 days, for detection of ATP which is directly proportional to the number of cells present per well, the CellTiter-Glo® 2.0 Reagent is used. […] Luminescence is measured with PHERAstar FSX (interval time 0.5 sec, gain 3000, focal height 15 mm) and exported as CSV file for analysis in Genedata screener. […]
Quantity: Emax (%)
Quick reminder: number only, in %, skip the unit.

Solved cases below.
>  <Compound>
CC(=O)N1CC2CC2(c2nnc(-c3cc4c(cc3F)S(=O)(=O)C[C@H](N)C(=O)N4Cc3ccc(Cl)cc3)o2)C1 (stereo partly shown) [Example 182]

>  <Emax [%]>
38

$$$$
>  <Compound>
N[C@H]1CS(=O)(=O)c2cc(F)c(-c3noc(N4CCC(F)(F)CC4)n3)cc2N(Cc2ccc(Cl)cc2)C1=O [Example 197]

>  <Emax [%]>
112

$$$$
>  <Compound>
CC(C)(C)c1nnc(-c2cc3c(cc2F)S(=O)(=O)C[C@H](N)C(=O)N3Cc2ccc(Cl)cc2)o1 [Example 63]

>  <Emax [%]>
141

$$$$
>  <Compound>
CC(C)(C)c1nnc(-c2ccc3c(c2)N(Cc2ccc(OC4CC4)cc2)C(=O)[C@@H](N)CS3(=O)=O)o1 [Example 435]

>  <Emax [%]>
117

$$$$
>  <Compound>
N[C@H]1CS(=O)(=O)c2cc(F)c(-c3nnc(N4C[C@H]5C[C@@H](C4)C5(F)F)o3)cc2N(Cc2ccc(Cl)cc2)C1=O [Example 469]

>  <Emax [%]>
105

$$$$
>  <Compound>
CC(C)(CN1CCOCC1)c1nnc(-c2cc3c(cc2F)S(=O)(=O)C[C@H](N)C(=O)N3Cc2ccc(Cl)cc2)o1 [Example 147]

>  <Emax [%]>
117

$$$$

Return the recorded Emax value; entry: CCN1CC(c2nnc(-c3cc4c(cc3F)S(=O)(=O)C[C@H](N)C(=O)N4Cc3ccc(Cl)cc3)o2)CC(F)(F)C1 (stereo partly shown) [Example 150]
128

---

# System: primary human T-cells
pEC50: −log10 of the molar value.
MET means recorded pEC50 is 6 or above; NOT MET means it is below 6.

>  <Compound>
CC(C)(CCCN)c1nnc(-c2cc3c(cc2F)S(=O)(=O)C[C@H](N)C(=O)N3Cc2ccc(Cl)cc2)o1

>  <Class>
NOT MET

$$$$
>  <Compound>
CN(C)C(=O)c1nc(-c2cc3c(cc2F)S(=O)(=O)C[C@H](N)C(=O)N3Cc2ccc(Cl)cc2)no1

>  <Class>
NOT MET

$$$$
>  <Compound>
CC1(c2nnc(-c3cc4c(cc3F)S(=O)(=O)C[C@H](N)C(=O)N4Cc3ccc(Cl)cc3)o2)CC1

>  <Class>
MET

$$$$
>  <Compound>
N[C@H]1CS(=O)(=O)c2cc(F)c(-c3nnc(C4CC4)o3)cc2N(Cc2ccc(Cl)cc2)C1=O

>  <Class>
MET

$$$$
>  <Compound>
CC(C)Oc1ccc(CN2C(=O)[C@@H](N)CS(=O)(=O)c3cc(F)c(-c4nnc(C(C)(C)C)o4)cc32)nc1

>  <Class>
MET

$$$$
>  <Compound>
N[C@H]1CS(=O)(=O)c2cc(F)c(-c3nnc(CCF)o3)cc2N(Cc2ccc(Cl)cc2)C1=O

>  <Class>
MET

$$$$

Check this compound for pEC50 at or above 6: `CN(C)C(=O)c1nc(-c2cc3c(cc2F)S(=O)(=O)C[C@H](N)C(=O)N3Cc2ccc(OC(F)(F)C(F)F)cc2)no1`
NOT MET

Hi, just wondering whether `CC(C)(CN1CCS(=O)(=O)CC1)c1nnc(-c2cc3c(cc2F)S(=O)(=O)C[C@H](N)C(=O)N3Cc2ccc(Cl)cc2)o1` shows pEC50 of 6 or higher.
NOT MET

Item `CC(C)(C#N)Nc1nnc(-c2cc3c(cc2F)S(=O)(=O)C[C@H](N)C(=O)N3Cc2ccc(Cl)cc2)o1` with pEC50 of 6 or above?
NOT MET

Exam item: decide whether the reported pEC50 for `N[C@H]1CS(=O)(=O)c2cc(F)c(-c3nnc(C4CC5(C4)CC(F)(F)C5)o3)cc2N(Cc2ccc(Cl)cc2)C1=O` is at least 6.
MET

In plain terms: is recorded pEC50 at least 6 for `CC(C)(C#N)c1nc(-c2cc3c(cc2F)S(=O)(=O)C[C@H](N)C(=O)N3Cc2ccc(Cl)cc2)no1` ?
MET
